Values from patent US20260184782A1

Examples of binders with documented Kd follow.
- test system: T1, recombinant human TIGIT (human, UniProt Q495A1 22-141, limits assumed)
- T1 construct: recombinant human TIGIT used in Carterra SPR; also called hTIGIT
- T1 sequence (looked up): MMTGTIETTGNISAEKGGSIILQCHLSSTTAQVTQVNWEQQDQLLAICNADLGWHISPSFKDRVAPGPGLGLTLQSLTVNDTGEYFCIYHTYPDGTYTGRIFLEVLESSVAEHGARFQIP
- assay notes: SPR Carterra, average
Numeric answer only, unit nM assumed.

>  <binder>
TIGIT-SC79 (Fc fusion, VHH-Fc fusion in assay) VHH: EVQLVESGGGLVQPGGSLRLSCAASGSILSINTMGWFRQAPGKEREFVAAITSAGGTTYYADSVKGRFTISADNSKNTAYLQMNSLKPEDTAVYYCARWHYDILTGYYWLDSWGQGTLVTVSS

>  <quantitative readout>
56

$$$$
>  <binder>
TIGIT-SC73 (Fc fusion, VHH-Fc fusion in assay) VHH: EVQLVESGGGLVQPGGSLRLSCAASGSSFSLADYAMGWFRQAPGKEREFVAAISYNVGTTYYADSVKGRFTISADNSKNTAYLQMNSLKPEDTAVYYCARWSAKRHSDTMTYYMDVWGQGTLVTVSS

>  <quantitative readout>
21.8

$$$$
>  <binder>
TIGIT-SC158 (Fc fusion, VHH-Fc fusion in assay) VHH: EVQLVESGGGLVQPGGSLRLSCAASGFTFSPSWMGWFRQAPGKEREWVASVLRGGYTWYADSVKGRFTISADNSKNTAYLQMNSLKPEDTAVYYCAREGRSSSPWFDPWGQGTLVTVSS

>  <quantitative readout>
143

$$$$
>  <binder>
TIGIT-SC148 (Fc fusion, VHH-Fc fusion in assay) VHH: EVQLVESGGGLVQPGGSLRLSCAASGDIGSINAMGWFRQAPGKEREFVAGIWRSGNLKAYADSVKGRFTISADNSKNTAYLQMSSLKPEDTAVYYCARGNIVVVPAAFVIWFDPWGQGTLVTVSS

>  <quantitative readout>
1320

$$$$
>  <binder>
TIGIT-SC69 (Fc fusion, VHH-Fc fusion in assay) VHH: EVQLVESGGGLVQPGGSLRLSCAASGGTFNGRAMGWFRQAPGKEREFVAAISSIGDTYYADSVKGRFTISADNSKNTAYLQMNSLKPEDTAVYYCARWRLDRRQGFYYAMDVWGQGTLVTVSS

>  <quantitative readout>
12.6

$$$$
>  <binder>
TIGIT-SC16 (Fc fusion, VHH-Fc fusion in assay) VHH: EVQLVESGGGLVQPGGSLRLSCAASGTTFSSAAMGWFRQAPGKEREWVASVLRGGYTWYADSVKGRFTISADNSKNTAYLQMNSLKPEDTAVYYCARDPVELGDYWGQGTLVTVSS

>  <quantitative readout>
52.6

$$$$
>  <binder>
TIGIT-SC161 (Fc fusion, VHH-Fc fusion in assay) VHH: EVQLVESGGGLVQPGGSLRLSCAASGFTFSPSWMGWFRQAPGKEREWVASVLRGGYTWYADSVKGRFTISADNSKNTAYLQMNSLKPEDTAVYYCTTDRAIGVRPLFDHWGQGTLVTVSS

>  <quantitative readout>
33.9

$$$$

Shifting focus to the binder that follows.
For this binder ( TIGIT-SC131 (Fc fusion, VHH-Fc fusion in assay) VHH: EVQLVESGGGLVQPGGSLRLSCAASGDTSEIYDMGWFRQAPGKEREFVAITWNSGRIGSNGFATYADSVKGRFTISADNSKNTAYLQMNSLKPEDTAVYYCARWAVGQAFDLWGQGTLVTVSS ), measured Kd is 41
